# Measured Target: Jak2 (UniProt O60674)
# Sequence (O60674 whole entry, looked up): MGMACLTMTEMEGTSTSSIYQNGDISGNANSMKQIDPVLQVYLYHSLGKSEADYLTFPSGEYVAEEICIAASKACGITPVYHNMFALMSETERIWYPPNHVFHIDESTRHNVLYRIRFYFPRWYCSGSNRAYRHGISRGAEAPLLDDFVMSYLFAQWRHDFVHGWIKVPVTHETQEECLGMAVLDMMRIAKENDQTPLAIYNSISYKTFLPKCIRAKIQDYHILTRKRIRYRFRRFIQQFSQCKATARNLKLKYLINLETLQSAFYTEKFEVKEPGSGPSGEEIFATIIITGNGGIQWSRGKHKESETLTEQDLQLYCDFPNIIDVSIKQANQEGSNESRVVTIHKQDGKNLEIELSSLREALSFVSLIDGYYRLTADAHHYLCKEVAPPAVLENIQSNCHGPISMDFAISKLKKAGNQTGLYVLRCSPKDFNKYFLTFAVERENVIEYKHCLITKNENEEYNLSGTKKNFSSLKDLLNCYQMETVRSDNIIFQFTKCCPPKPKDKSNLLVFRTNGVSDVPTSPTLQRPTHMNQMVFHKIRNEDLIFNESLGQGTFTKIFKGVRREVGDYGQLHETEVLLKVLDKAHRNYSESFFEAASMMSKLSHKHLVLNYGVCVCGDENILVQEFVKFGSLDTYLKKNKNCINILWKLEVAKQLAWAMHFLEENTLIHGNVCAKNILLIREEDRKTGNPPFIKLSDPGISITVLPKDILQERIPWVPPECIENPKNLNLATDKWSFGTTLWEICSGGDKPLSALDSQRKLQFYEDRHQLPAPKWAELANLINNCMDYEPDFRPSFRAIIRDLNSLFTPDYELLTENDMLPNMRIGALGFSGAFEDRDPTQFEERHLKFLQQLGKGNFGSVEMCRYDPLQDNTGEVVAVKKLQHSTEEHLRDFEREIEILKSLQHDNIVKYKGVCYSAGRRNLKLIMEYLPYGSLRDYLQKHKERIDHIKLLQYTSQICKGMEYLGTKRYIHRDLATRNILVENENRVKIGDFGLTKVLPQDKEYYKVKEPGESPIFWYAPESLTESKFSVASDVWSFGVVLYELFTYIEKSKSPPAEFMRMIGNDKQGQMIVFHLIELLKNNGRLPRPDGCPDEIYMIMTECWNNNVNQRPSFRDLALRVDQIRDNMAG
# Assay Details: phosphorylation enrichment, bacterial display (enrichment ratio); higher = better substrate or ligand; peptides without Tyr show the background;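 further: 11-residue human phosphosite peptides and single-mutation variants displayed on the E. coli surface, counted by deep sequencing, each peptide's frequency after selection divided by its frequency in the unselected input library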;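 further: frequency after pTyr selection over input frequency; kinase dosed for 20-30% of maximal phosphorylation in three min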
Property Label: phosphorylation enrichment

Illustrative cases are given below, each with its answer.
| Sequence Content | Value Reported |
| --- | --- |
| LPSKDYAEVGR [HP_Y272] | 0.684 |
| LKMLVYLDMSK [LRRC7_Y234] | 1.24 |

// batch mode: one phosphorylation enrichment value per listed entry
1. QCQLKYSETPF [SIX6OS1_Y129_Y125C]
2. SFPSTYRFERG [INPPL1_Y661_P659S_YF]

1. 1.01
2. 0.724
